Endpoint: log10(IC50). System: human p38alfa (SAPKa) enzyme (Homo sapiens, UniProt Q16539). Items follow.
Sequence (Q16539 whole entry): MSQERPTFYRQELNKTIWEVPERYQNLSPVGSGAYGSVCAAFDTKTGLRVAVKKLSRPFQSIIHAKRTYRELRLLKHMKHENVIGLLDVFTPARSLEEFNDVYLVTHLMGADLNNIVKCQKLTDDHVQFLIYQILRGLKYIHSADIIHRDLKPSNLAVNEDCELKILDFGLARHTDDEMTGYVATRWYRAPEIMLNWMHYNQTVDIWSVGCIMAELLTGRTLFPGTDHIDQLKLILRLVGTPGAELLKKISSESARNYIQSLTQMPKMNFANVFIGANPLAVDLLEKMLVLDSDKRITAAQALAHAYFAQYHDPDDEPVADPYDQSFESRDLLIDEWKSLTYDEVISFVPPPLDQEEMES
// stored as log10 of IC50 expressed in nM

Take a look at these entries with their results.
# COMPOUND, OBS_VALUE
data = [
    ("Cc1ccc2c(NC3CC3)noc2c1-c1ccc2c(c1)NC(=O)C21CCOCC1", -0.70),
    ("O=C1Nc2cc(-c3cccc4c(NC5CC5)noc34)ccc2C12CCCC2", 1.59),
    ("Cc1ccc2c(NC3CC3)noc2c1-c1cnc2c(c1)NC(=O)C21CCC(C)(O)CC1 (centres unmarked) [Example 9]", -0.40),
    ("Cc1ccc2c(N)noc2c1-c1ccc2c(c1)NC(=O)C2(C)C", 1.58),
    ("Cc1ccc2c(N)noc2c1-c1ccc2c(c1)NC(=O)C21CCOCC1", 1.00),
]

Value of measured log10(IC50) for the entry `O=C1Nc2cc(-c3cccc4c(NC5CC5)noc34)c(Cl)cc2C12CCCC2` : 0.60

Value of measured log10(IC50) for the entry Cc1ccc2c(N)noc2c1-c1ccc2c(c1)NC(=O)C21CCC(C)(O)CC1 (centres unmarked) : -0.05

Value of measured log10(IC50) for the entry Cc1ccc2c(NC3CC3)noc2c1-c1cnc2c(c1)NC(=O)C21CCC(C)(O)CC1 (centres unmarked) [Example 8] : -0.19

Value of measured log10(IC50) for the entry `Cc1ccc2c(N)noc2c1-c1ccc2c(c1)NC(=O)C21CCC(F)(F)CC1` : 0.00

Value of measured log10(IC50) for the entry `Cc1ccc2c(NC3CC3)noc2c1-c1ccc2c(c1)NC(=O)C21CCCC1` : -0.05

Value of measured log10(IC50) for the entry `Cc1ccc2c(NC3CC3)noc2c1-c1cnc2c(c1)NC(=O)C21CCOCC1` : 0.80
